Source of measurements: patent US20230051268A1

Measurement notes: Single-dose pharmacokinetic study of lemborexant and metabolites M4, M9, M10 in subjects with mild or moderate hepatic impairment and healthy controls (plasma, LC-MS/MS)
Format: in vivo, human
Measurement setup: human, plasma, po, 10 mg, lemborexant 10 mg single oral dose; normal hepatic function (n = 8); median (range); read-out: tmax

Query smiles: Cc1ncc(OC[C@@]2(c3cccc(F)c3)C[C@H]2C(=O)Nc2ccc(F)cn2)c(C)n1
Tmax [h]: 1.25

----------
Measurement notes: Single-dose pharmacokinetic study of lemborexant and metabolites M4, M9, M10 in subjects with mild or moderate hepatic impairment and healthy controls (plasma, LC-MS/MS)
Type: in vivo, human
Measurement setup: human, plasma, po, 10 mg, lemborexant 10 mg single oral dose; moderate hepatic impairment (n = 6); geometric mean (% CV); read-out: Vz/F

Compound: Cc1ncc(OC[C@@]2(c3cccc(F)c3)C[C@H]2C(=O)Nc2ccc(F)cn2)c(C)n1 [lemborexant]
Vd/F (L): 2170
